# protocol.text: inhibitors of Chlamydomonas gravitaxis, primary screen, whole organism, Chlamydomonas reinhardtii, WT vs cilia-less mutant, absorbance, 96-well (AID 463189);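 note: 0% = wild type cc124 cells in DMSO and 100% = ciliumless bld1 mutant cells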
# reported.conditions: OD600 absorbance, 2 days, at 10 µM, stronger effect = higher value
readout.type: inhibition (%)
Lab book: enter the figure in %, no units written.

Some solved cases for reference:
>  <molecule>
c1ccc(CN2CCN(c3nc(-c4ccccn4)nc4ccccc34)CC2)cc1

>  <inhibition (%)>
130

$$$$
>  <molecule>
COc1ccc(/C(O)=C2/C(=O)C(=O)N(c3ncccn3)C2c2ccc(OC)c(OC)c2)cc1 (stereo unspecified)

>  <inhibition (%)>
3.9

$$$$
>  <molecule>
CCN1C(=O)CC(N2CCN(c3ccc(OC)cc3)CC2)C1=O (stereo unspecified)

>  <inhibition (%)>
5.49

$$$$

// next entry
The molecule listed as CN(C)c1nc2n(c(=S)n1)CCS2 has a reported inhibition of -16.2
